- procedureSummary: Cytotoxicity against human macrophages after 24 hrs by MTT assay
- Format: cell-based, Macrophage
Assign CC50 at 24 h to each entry below.
The response must be a number in µM with no trailing unit.

// query Respond only with CC50 at 24 h recorded for O=C(Cc1ccc(Cl)cc1)Nc1nc(-c2ccc(Br)cc2)cs1
// result 286

// query Supply recorded CC50 at 24 h for O=C(Cc1ccc(F)cc1)Nc1nc(-c2ccc(Br)cc2)cs1 here.
// result 264

// query Find the measured CC50 at 24 h of O=C(Cc1cccc(Cl)c1)Nc1nc(-c2ccccc2)cs1 and report it.
// result 264

// query Provide CC50 at 24 h value for the following compound: CC1(C)S[C@@H]2[C@H](NC(=O)Cc3ccccc3)C(=O)N2[C@H]1C(=O)O
// result 229

// query Quick one: give measured CC50 at 24 h for O=C(Cc1cccc(Br)c1)Nc1nc(-c2ccccc2)cs1
// result 257

###

- procedureSummary: Cytotoxicity against human macrophages after 24 hrs by MTT assay
- Assay type: cell-based, Macrophage
Would you kindly list CC50 at 24 h for each of these compounds?
Give your result in µM as a bare value.

// query Write down CC50 at 24 h measured for item O=C(Cc1ccc(Cl)cc1)Nc1nc(-c2ccccc2)cs1
// result 357

// query Provide one value: measured CC50 at 24 h of COc1cccc(CC(=O)Nc2nc(-c3ccc(Br)cc3)cs2)c1
// result 192

// query Please report CC50 at 24 h for the following compound: O=C(Cc1cccc(Br)c1)Nc1nc(-c2ccc(Br)cc2)cs1
// result 220

// query Please report CC50 at 24 h for the following compound: O=C(Cc1ccc(F)cc1)Nc1nc(-c2ccccc2)cs1
// result 318

// query Identify the reported CC50 at 24 h for the following entry. O=C(Cc1ccc(Br)cc1)Nc1nc(-c2ccc(Br)cc2)cs1
// result 315

// query Supply reported CC50 at 24 h belonging to this compound: O=C(Cc1cccc(Cl)c1)Nc1nc(-c2ccc(Br)cc2)cs1
// result 194

###

- procedureSummary: Inhibition of Escherichia coli N-terminal His-tagged FabH expressed in Escherichia coli BL21(DE3) using holo-acyl carrier protein as substrate preincubated for 1 min followed by acetyl-CoA addition measured after 25 mins by liquid scintillation counting analysis
# if measured IC50 < 30 µM: true (1)  # else: false (0)

// query Item O=C(Nc1nc(-c2ccccc2)cs1)c1ccccc1 : IC50 beneath 30 µM, strictly?
// result false (0)

// query Determine if O=C(Cc1cccc(Br)c1)Nc1nc(-c2ccc(Br)cc2)cs1 shows IC50 strictly lower than 30 µM.
// result true (1)

// query Threshold test, IC50 < 30 µM: O=C(Cc1cccc(Cl)c1)Nc1nc(-c2ccc(Br)cc2)cs1
// result true (1)

// query Please state whether IC50 is below 30 µM for O=C(Cc1cccc(Br)c1)Nc1nc(-c2ccccc2)cs1
// result true (1)

// query Is IC50 of O=C(Cc1ccc(Cl)cc1)Nc1nc(-c2ccccc2)cs1 strictly below 30 µM?
// result false (0)

// query Say whether its IC50 is strictly beneath 30 µM. Entry: O=C(Cc1ccc(Cl)cc1)Nc1nc(-c2ccc(Br)cc2)cs1
// result false (0)

###

What pIC50 was measured for each of the following?
- procedureSummary: Inhibition of Escherichia coli N-terminal His-tagged FabH expressed in Escherichia coli BL21(DE3) using holo-acyl carrier protein as substrate preincubated for 1 min followed by acetyl-CoA addition measured after 25 mins by liquid scintillation counting analysis
Lab note: report pIC50 as minus log10 of the concentration in molar units, number only.

// query Respond only with pIC50 recorded for O=C(Cc1ccc(F)cc1)Nc1nc(-c2ccccc2)cs1
// result 4.42

// query Write down pIC50 measured for item O=C(Cc1cccc(Cl)c1)Nc1nc(-c2ccccc2)cs1
// result 4.91

// query Write down pIC50 measured for item CC1(C)S[C@@H]2[C@H](NC(=O)Cc3ccccc3)C(=O)N2[C@H]1C(=O)O
// result 5.31

// query For the compound COc1cccc(CC(=O)Nc2nc(-c3ccc(Br)cc3)cs2)c1 , give its measured pIC50 value.
// result 5.18

// query Report pIC50 for O=C(Cc1ccc(Br)cc1)Nc1nc(-c2ccc(Br)cc2)cs1
// result 4.32
